Each recorded value in this set is attributed to ChEMBL document CHEMBL5120879.

Molecular target: UniProt Q06187
Sequence (Q06187 whole entry): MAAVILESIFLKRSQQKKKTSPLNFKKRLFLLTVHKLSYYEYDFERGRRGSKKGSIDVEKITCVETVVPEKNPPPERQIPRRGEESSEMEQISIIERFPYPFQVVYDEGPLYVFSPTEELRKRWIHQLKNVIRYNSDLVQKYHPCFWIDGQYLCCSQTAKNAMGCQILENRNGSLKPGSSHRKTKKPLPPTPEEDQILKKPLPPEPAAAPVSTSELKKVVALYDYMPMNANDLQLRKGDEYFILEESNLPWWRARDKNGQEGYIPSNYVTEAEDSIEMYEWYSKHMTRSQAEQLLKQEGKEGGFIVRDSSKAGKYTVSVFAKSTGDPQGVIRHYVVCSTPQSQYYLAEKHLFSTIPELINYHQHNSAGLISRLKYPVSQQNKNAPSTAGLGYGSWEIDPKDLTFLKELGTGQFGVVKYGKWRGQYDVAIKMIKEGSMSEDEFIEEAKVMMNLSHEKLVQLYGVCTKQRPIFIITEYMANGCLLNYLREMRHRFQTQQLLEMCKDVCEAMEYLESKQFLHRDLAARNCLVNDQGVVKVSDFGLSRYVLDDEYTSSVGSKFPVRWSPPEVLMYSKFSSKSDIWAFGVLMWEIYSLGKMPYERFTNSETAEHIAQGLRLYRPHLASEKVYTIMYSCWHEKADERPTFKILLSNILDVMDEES
Experiment: Inhibition of BTK (unknown origin)
quantityKind: pIC50
Worth noting: pIC50 values are minus log10 of concentrations stated in mol/L.

Enquiry: Input `Cc1cc(C(N)=O)c2[nH]c3cc(C(C)(C)O)ccc3c2c1-c1cccc(-n2c(=O)[nH]c3c(F)cccc3c2=O)c1O` , output reported pIC50.
Return: 9.52

###

Test: Intrinsic clearance in mouse
Assay type: ADME, organism-based
Settings: in vivo
quantityKind: CLint scaled (mL/min/kg)
Kindly provide the numeric value in mL/min/kg only, without the unit symbol.

Enquiry: Input Nc1ncnc2c1c(-c1ccc(Oc3ccccc3)cc1)nn2C1CCN(CCOCCOCC(=O)Nc2ccc3c(c2)C(=O)N(C2CCC(=O)NC2=O)C3=O)CC1 (stereo unspecified) , output reported CLint scaled.
Return: 1660
